meta.source: patent US20030148956A1

// values below are reported CRF2R Emax
- Tgt: T1, CRF2R
- T1 sequence (Q13324 whole entry, species assumed, looked up): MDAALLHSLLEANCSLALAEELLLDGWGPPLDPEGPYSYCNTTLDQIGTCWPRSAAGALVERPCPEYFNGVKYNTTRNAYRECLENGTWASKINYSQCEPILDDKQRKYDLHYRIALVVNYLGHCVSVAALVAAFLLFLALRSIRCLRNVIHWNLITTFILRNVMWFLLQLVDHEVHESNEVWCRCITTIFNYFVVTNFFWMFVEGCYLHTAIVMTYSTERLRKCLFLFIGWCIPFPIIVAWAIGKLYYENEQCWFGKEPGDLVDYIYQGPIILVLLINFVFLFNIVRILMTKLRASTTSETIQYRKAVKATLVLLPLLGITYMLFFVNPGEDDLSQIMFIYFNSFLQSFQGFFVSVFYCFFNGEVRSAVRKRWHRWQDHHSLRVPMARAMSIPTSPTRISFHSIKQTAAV
- Experiment: cell-based or functional assay
Ends that are not written are not given here.
Property measured: CRF2R Emax (%)

Binder: IVLSLDVPIGLLQILLEQRAAREQATTNARILARV-NH2 [SEQ ID NO 136]
Property measured: CRF2R Emax
Unit info: %
Quantitative result: 68
--
Binder: ZGPPISIDLPIELLRKMIEIEKQEKEKQQAANNRLLLDTI (C-terminal amide) [SEQ ID NO 76]
Property measured: CRF2R Emax
Unit info: %
Quantitative result: 76
--
Binder: IVLSLDVPIGLLQILLEQAARAAREQATTNARILARV-NH2 [SEQ ID NO 135]
Property measured: CRF2R Emax
Unit info: %
Quantitative result: 76
--
Binder: ZGPPISIDLPFQLLRKMIEIEKQEKEKQQATTNARLLARV (C-terminal amide) [SEQ ID NO 23]
Property measured: CRF2R Emax
Unit info: %
Quantitative result: 100
--
Binder: ZGPPISIDLPLQLLRKMIEIEKQEKEKQQAANNRLLLDTI (C-terminal amide) [SEQ ID NO 80]
Property measured: CRF2R Emax
Unit info: %
Quantitative result: 88
--
Binder: ZGPPISIDLPTYLLRKMIEIEKQEKEKQQAANNRLLLDTI (C-terminal amide) [SEQ ID NO 70]
Property measured: CRF2R Emax
Unit info: %
Quantitative result: 82
